For each of the compounds below, state its IC50.
target: UniProt P23219; experiment: Human whole blood assay, COX-1 (clotting-induced TxB2 production); type: cell-based; set-up: endogenous in cells; host or cells: platelets in fresh human whole blood without anticoagulant; settings: clotting-induced TxB2, 1 hour at 37° C., read-out: COX-1 (IC50 μM) HWB
Sequence (P23219 24-599): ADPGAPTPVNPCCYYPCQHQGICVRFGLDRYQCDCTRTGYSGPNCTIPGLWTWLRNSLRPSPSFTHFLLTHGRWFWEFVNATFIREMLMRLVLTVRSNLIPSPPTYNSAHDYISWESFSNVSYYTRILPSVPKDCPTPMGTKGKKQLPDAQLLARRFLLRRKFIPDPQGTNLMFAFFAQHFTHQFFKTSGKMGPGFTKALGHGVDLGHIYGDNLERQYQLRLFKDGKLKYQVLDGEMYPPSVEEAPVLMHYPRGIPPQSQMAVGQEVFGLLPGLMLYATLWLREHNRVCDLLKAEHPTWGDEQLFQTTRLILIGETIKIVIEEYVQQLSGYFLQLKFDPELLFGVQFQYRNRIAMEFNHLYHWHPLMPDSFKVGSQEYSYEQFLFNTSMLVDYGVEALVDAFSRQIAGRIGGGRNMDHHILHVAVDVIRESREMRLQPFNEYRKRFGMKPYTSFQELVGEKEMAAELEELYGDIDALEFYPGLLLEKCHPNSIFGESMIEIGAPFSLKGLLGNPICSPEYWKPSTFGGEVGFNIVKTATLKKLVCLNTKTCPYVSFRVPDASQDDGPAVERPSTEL
Give the value in µM but do not write µM after it.

Incoming: Fill in the blank: the reported IC50 of Cc1cc(-c2ccc(S(C)(=O)=O)cc2)c(-c2ccccc2)c(=O)o1 is ____.
Outgoing: 6.3

Incoming: Please do the same for Cc1cc(-c2ccc(S(C)(=O)=O)cc2)c(-c2ccc(F)cc2)c(=O)o1 as well.
Outgoing: 2

Incoming: Again, but for Cc1cc(-c2ccc(S(C)(=O)=O)cc2)c(-c2cccnc2)c(=O)o1
Outgoing: 16

Incoming: What about this compound? CS(=O)(=O)c1ccc(-c2ccoc(=O)c2-c2ccccc2)cc1
Outgoing: 13

Incoming: Input Cc1cc(-c2ccc(S(C)(=O)=O)cc2)c(Sc2ccccc2)c(=O)o1
Outgoing: 16

Incoming: Next entry: Cc1cc(-c2ccc(S(C)(=O)=O)cc2)c(-c2cccc(F)c2)c(=O)o1
Outgoing: 6.9

Incoming: Could you do the same for Cc1cc(-c2ccc(S(C)(=O)=O)cc2)c(Oc2ccccc2)c(=O)o1 , please?
Outgoing: 13

Cited source for all entries: patent US6465509B2
